meta.source: a melting point compilation (Tetko et al.; mined from patent text by program, amines drawn as free bases though some values may be those of a salt)

Endpoint Name: melting point

Note to self: melting point recorded for CS(=O)(=O)Nn1c(=O)[nH]c2cc([N+](=O)[O-])c(-n3ccnc3)cc2c1=O was > 270 °C

Note to self: melting point recorded for CN(Cc1ccc2c(Br)c(OCc3nnn[nH]3)ccc2c1)C(=O)c1oc2ccccc2c1CCc1ccccc1 was 56 to 59 °C

Note to self: melting point recorded for NS(=O)(=O)c1ccc(-c2c(-c3ccccc3)noc2COCC(F)(F)C(F)(F)C(F)(F)CO)cc1 was 50 to 51 °C

Note to self: melting point recorded for CC1(O)CN(c2ccc([N+](=O)[O-])cc2F)C1 was 109 to 110 °C

Lab note: next compound to report on.
Note to self: melting point recorded for CCCCOc1ccc(NC(=O)NCC2(c3ccccc3)CCCCC2)cc1 was 142 to 143 °C

* * *

Let's look at some molecules and their measured melting point.

Solved cases below.
Note to self: melting point recorded for COc1ccc(N(C=C(C#N)C#N)N=C(C#N)C#N)cc1 was 143 to 145 °C

Note to self: melting point recorded for Cn1c(C(=O)OCc2cc(C(F)(F)F)cc(C(F)(F)F)c2)c(-c2ccccc2)c2ccccc2c1=O was 153 to 154 °C

Note to self: melting point recorded for CC(=O)Nc1ccc(OC(F)F)c(OC(F)F)c1 was 65 to 67 °C

Note to self: melting point recorded for CC1(CNC(=O)OCc2ccccc2)CCCCn2c1nc(-c1ccncn1)cc2=O (racemic) was 118 to 120 °C

Note to self: melting point recorded for CCOC(=O)c1c(C)n(-c2ccccc2)c(C)c(C(=O)OCc2ccccc2)c1=O was 142 °C

Lab note: next molecule to report on.
Note to self: melting point recorded for CC(C)NC(=O)c1nn(-c2ccc(Cl)cc2)c(=O)c2c(N)scc12 was 197 to 199 °C

* * *

Endpoint Name: melting point

Solved cases below.
Note to self: melting point recorded for COC1C(Oc2ccc(N)cc2)OC(CO)C(OC2OC(CO)C(O)C(OC)C2O)C1O (stereo unspecified) was 105 °C

Note to self: melting point recorded for CC(C)c1cccc(C(C)C)c1NC(=O)NCC1(c2cc(C(F)(F)F)cc(C(F)(F)F)c2)CCCC1 was 165 to 168 °C

Note to self: melting point recorded for Cc1ncc(C#N)c(Nc2cccc3[nH]ccc23)c1-c1ccc(OCCCl)cc1 was 185 to 186 °C

Note to self: melting point recorded for CC(C)c1ccc2c(c1)C(=O)c1ccc(-c3nnn(C)n3)cc1S2(=O)=O was 219 to 221 °C

Note to self: melting point recorded for Cc1c2n(c(=O)n(Cc3ccccc3)c1=O)CCCS2 was 141 to 142 °C

Note to self: melting point recorded for Cc1cc(Nc2ccnc(Nc3ccc(S(=O)(=O)N4CCC(C(O)Cc5ncccc5C)CC4)cc3)n2)ccc1F (stereo unspecified) was 103 to 104 °C

Continuing:
Note to self: melting point recorded for CCCCOC(=O)N(C)C(CNC(=O)CC1CC(c2ccc(C#N)cc2)=NO1)C(=O)O (stereo unspecified) was 154 to 156 °C

Note to self: melting point recorded for CC(C)c1cc2cc([N+](=O)[O-])ccc2o1 was 73 °C

Note to self: melting point recorded for CCOC(=O)COc1cc2c(c(Cl)c1Cl)C(=O)C(c1ccc(Cl)cc1)C2 (stereo unspecified) was 160 °C

Note to self: melting point recorded for O=C(Nc1ccc2cc(CN3CCCC3)cnc2c1F)c1ccc(-c2ccccc2)cc1 was 186 to 188 °C
